These measurements were taken from paper PMC8843131.

Can you tell me log10 of Ki for the items I'm about to list?
target: NgCAα (Neisseria gonorrhoeae); construct: gene cah; recombinant, obtained in-house as described earlier; experiment: stopped-flow CO2 hydrase assay; assay type: biochemical
Heads up: the numbers are on a log10 scale; they represent Ki in µM.

Query `Nc1ccc(O)cc1` yields log10 of Ki of 0.78

Query `CC(=O)Nc1ccc(O)cc1` yields log10 of Ki of 0.18

Query `Oc1ccc(O)c(O)c1` yields log10 of Ki of 0.59

Query OCc1ccc(O)cc1 [compound 12, 4-hydroxy-benzylalcohol] yields log10 of Ki of -0.22

Query O=C(O)c1ccc(O)c(O)c1 [compound 18, 3,4-dihydroxybenzoic acid] yields log10 of Ki of 0.97

Query `O=C(O)/C=C/c1ccc(O)c(O)c1` yields log10 of Ki of 1.88

Query `Oc1cc(F)cc(F)c1` yields log10 of Ki of 0.57

Query `O=C(O)c1cc(O)ccc1O` yields log10 of Ki of 1.21

Query `Oc1ccccc1` yields log10 of Ki of -0.05

Query `Nc1cccc(O)c1` yields log10 of Ki of 0.23

Query `Oc1ccc(O)cc1` yields log10 of Ki of 0.67

Query `Oc1ccc(F)cc1F` yields log10 of Ki of 1.56

Query `Oc1cccc(O)c1` yields log10 of Ki of 0.34

Query `Nc1ccc(O)c(Cl)c1` yields log10 of Ki of 1.85

Query `O=C(O)c1ccccc1O` yields log10 of Ki of 1.64

Query `Nc1cc(O)ccc1Cl` yields log10 of Ki of -0.10

Query `O=C(O)c1c(O)cccc1O` yields log10 of Ki of 1.52

Query `O=C(O)/C=C/c1ccc(O)cc1` yields log10 of Ki of 1.00

Query O=C(O)c1ccc(O)cc1 [compound 11, 4-hydroxy-benzoic acid] yields log10 of Ki of 0.94

Query `Oc1ccccc1O` yields log10 of Ki of 0.72

----------
target: VchCAα (Vibrio cholerae); construct: gene VC_A0274; experiment: stopped-flow CO2 hydrase assay; assay type: biochemical; settings: read-out: KI (μM)^a / VchCAα; CO2 substrate 1.7-17 mM, 10 mM HEPES pH 7.4, 10 mM NaClO4, 15 min preincubation
Sequence (Q9KMP6 21-239 limits assumed): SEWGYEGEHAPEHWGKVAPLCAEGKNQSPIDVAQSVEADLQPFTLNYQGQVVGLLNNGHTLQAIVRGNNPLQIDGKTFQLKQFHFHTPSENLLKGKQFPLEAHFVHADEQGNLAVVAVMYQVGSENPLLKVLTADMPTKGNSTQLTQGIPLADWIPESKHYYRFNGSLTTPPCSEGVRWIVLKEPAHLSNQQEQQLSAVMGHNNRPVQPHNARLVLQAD
Measured Ki determines class: low range (below 4 µM), mid range (4 µM to below 40 µM), high range (40 µM or more)

Using the reported Ki, which band applies to O=C(O)c1cc(O)ccc1O [compound 20, 20] ?
mid range

Using the reported Ki, which band applies to CC(=O)Nc1ccc(O)cc1 [compound 8, paracetamol] ?
mid range

Using the reported Ki, which band applies to Oc1ccc(F)cc1F [compound 15, 15] ?
mid range

Using the reported Ki, which band applies to O=C(O)c1c(O)cccc1O [compound 19, 19] ?
high range

Using the reported Ki, which band applies to O=C(O)c1ccc(O)c(O)c1 [compound 18, 3,4-dihydroxybenzoic acid] ?
mid range

Using the reported Ki, which band applies to Nc1ccc(O)c(Cl)c1 [compound 14, 14] ?
high range

Using the reported Ki, which band applies to Oc1ccccc1 [compound 1, phenol] ?
low range

Using the reported Ki, which band applies to O=C(O)c1ccc(O)cc1 [compound 11, 4-hydroxy-benzoic acid] ?
low range

----------
target: NgCAα (Neisseria gonorrhoeae, UniProt Q50940); construct: gene cah; recombinant, obtained in-house as described earlier; experiment: stopped-flow CO2 hydrase assay; assay type: biochemical; settings: CO2 substrate 1.7-17 mM, 10 mM HEPES pH 7.4, 10 mM NaClO4, 15 min preincubation
Sequence (Q50940 27-252): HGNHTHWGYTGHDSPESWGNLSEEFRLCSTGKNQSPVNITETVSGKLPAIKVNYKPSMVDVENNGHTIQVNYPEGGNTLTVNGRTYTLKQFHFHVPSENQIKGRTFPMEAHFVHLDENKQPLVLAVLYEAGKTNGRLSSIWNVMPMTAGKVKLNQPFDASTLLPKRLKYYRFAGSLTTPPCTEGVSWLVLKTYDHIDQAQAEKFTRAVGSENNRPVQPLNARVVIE
EXPERIMENTAL_READOUT: Ki

Query `N#Cc1ccc(O)cc1` yields Ki of 24.2 µM

----------
biological target: VchCAα (Vibrio cholerae); construct: gene VC_A0274; assay: stopped-flow CO2 hydrase assay; type: biochemical; details: read-out: KI (μM)^a / VchCAα; CO2 substrate 1.7-17 mM, 10 mM HEPES pH 7.4, 10 mM NaClO4, 15 min preincubation
Lab note: compare Ki with 5 µM, writing Met if less and Not met if equal or more.

Determine whether this compound shows Ki lower than 5 µM (ties excluded): OCc1ccc(O)cc1 [compound 12, 4-hydroxy-benzylalcohol]
Met

Determine whether this compound shows Ki lower than 5 µM (ties excluded): `Oc1cccc(O)c1`
Not met

Determine whether this compound shows Ki lower than 5 µM (ties excluded): `Nc1cc(O)ccc1Cl`
Met

Determine whether this compound shows Ki lower than 5 µM (ties excluded): `O=C(O)/C=C/c1ccc(O)cc1`
Not met

Determine whether this compound shows Ki lower than 5 µM (ties excluded): `O=C(O)c1ccccc1O`
Not met

Determine whether this compound shows Ki lower than 5 µM (ties excluded): `Oc1ccccc1O`
Not met

Determine whether this compound shows Ki lower than 5 µM (ties excluded): `Oc1ccc(O)cc1`
Not met

Determine whether this compound shows Ki lower than 5 µM (ties excluded): `O=C(O)/C=C/c1ccc(O)c(O)c1`
Not met
